In this section we review reported RP-LC retention time values for a set of molecules.
# assay_protocol: gradient 5% acetonitrile 3 min, to 50% in 2 min, to 85% in 15 min, held 3 min, 100 µL/min
# measurement_setup: column: Zorbax Extend-C18 2.1 x 50 mm; eluents: water / acetonitrile, 0.1% formic acid
Just the number in s, nothing appended.

Use the examples below as a reference point.
{"columns": ["molecule", "RP-LC retention time [s]"],
 "data": [
  ["COc1ccc(NC(=O)N2c3ccccc3CC2c2nc(C3CC3)no2)cc1OC (stereo not drawn)", 933],
  ["COC(=O)c1cnc(N2CCN(Cc3ccccc3)CC2)c2ccccc12", 682],
  ["CC(C)(C)c1ccc(C(=O)NC2(c3nc(-c4ccncc4)no3)CCCCC2)cc1", 1190]
]}

[Q] Look up RP-LC retention time of `Cc1nc2cc(-c3noc(-c4ccc(F)c(Cl)c4)n3)ccc2o1` and report it.
[A] 1270

[Q] Look up RP-LC retention time of O=C(NCC(=O)N1CC[C@H](NC2CCC(O)(c3ccc(-c4ncccn4)cn3)CC2)C1)c1cccc(C(F)(F)F)c1 (stereo partly drawn) and report it.
[A] 674

[Q] Look up RP-LC retention time of `CN(CC(=O)Nc1nnc(SCc2ccc(Cl)cc2Cl)s1)S(C)(=O)=O` and report it.
[A] 874

[Q] Look up RP-LC retention time of `COc1cc2[nH]c3c(SCC(=O)N4CCc5ccccc5C4)ncnc3c2cc1OC` and report it.
[A] 744

[Q] Look up RP-LC retention time of COc1ccc(CN2CCC3(CC2)CC(C)(O)CCO3)c(OC)c1 (stereo not drawn) and report it.
[A] 607

[Q] Look up RP-LC retention time of COc1ccc(OCC(=O)N2CCCC2c2nc(-c3ccc(OC)cc3)no2)cc1 (stereo not drawn) and report it.
[A] 934

[Q] Look up RP-LC retention time of `Cc1cccc(C)c1NC(=O)C1CCN(S(=O)(=O)c2ccc3c(c2)NC(=O)CO3)CC1` and report it.
[A] 813

[Q] Look up RP-LC retention time of COc1ccc(NC(=O)C2CCc3nc(N4CCC(C)CC4)ncc3C2)c(OC)c1 (stereo not drawn) and report it.
[A] 873

[Q] Look up RP-LC retention time of CCCN1C(=O)c2c(C(=O)NCCc3ccc(C)cc3)ncn2CC1(C)C(=O)NCCC(C)C (stereo not drawn) and report it.
[A] 907

[Q] Look up RP-LC retention time of `O=C(NCCc1csc(-c2ccc(F)cc2)n1)c1ccc2c(c1)OCO2` and report it.
[A] 908

[Q] Look up RP-LC retention time of Cn1cc(C(CNC(=O)Nc2ccccc2Cl)c2cccnc2)c2ccccc21 (stereo not drawn) and report it.
[A] 726

[Q] Look up RP-LC retention time of `COc1ncc(C(=O)Nc2ccc(F)cc2C)c(C)n1` and report it.
[A] 638

[Q] Look up RP-LC retention time of NC(=O)CCC(C(=O)O)N1C(=O)c2ccc(O)cc2C1=O (stereo not drawn) and report it.
[A] 620

[Q] Look up RP-LC retention time of CCOc1nc2ccccc2nc1N1CCCC(C(=O)NCc2cccnc2)C1 (stereo not drawn) and report it.
[A] 684

* * *

# assay_protocol: gradient 5% acetonitrile 3 min, to 50% in 2 min, to 85% in 15 min, held 3 min, 100 µL/min
# measurement_setup: column: Zorbax Extend-C18 2.1 x 50 mm; eluents: water / acetonitrile, 0.1% formic acid
observable: RP-LC retention time (s)
Just the number in s, nothing appended.

Use the examples below as a reference point.
{"columns": ["compound", "RP-LC retention time (s)"],
 "data": [
  ["Cc1ccc(NC(=O)Cn2nc(N3CCCC3)c3ccccc3c2=O)cc1Cl", 1060],
  ["CCOc1ccc(Nc2ncccc2S(N)(=O)=O)cc1", 773],
  ["CCN1C(=O)COc2ccc(-c3noc(COc4ccc(Cl)cc4)n3)cc21", 1110]
]}

Continue with the next compound.
[Q] Look up RP-LC retention time of COc1ccc(CNC(=O)C2CCN(S(C)(=O)=O)c3cc(Cl)ccc3O2)cc1 (stereo not given) and report it.
[A] 877
